Tested on: Wolbachia pipientis
Test: Anti-Wolbachia Cell-Based Screen
Format: functional
Parameters: scale not given: in the data most compounds retested in dose-response had high values
Details: 5 µM
Among all 48,000 compounds or so, about 13,000 (27%) showed an effect of 50% or more. Some of the results follow.
Percent Effect overview
Report as a plain number; the unit % is understood.

[
  {
    "Compound": "CC(C)c1cc(NCC2(CO)CCCC2)ncn1",
    "Unit String": "%",
    "Numeric Result": 7.781
  },
  {
    "Compound": "c1sc(C2CCCC2)nc1CN1CCn2c(nnc2C2CC2)C1",
    "Unit String": "%",
    "Numeric Result": -0.3735
  },
  {
    "Compound": "COc1nn(C)cc1C(=O)NCC(=O)Nc1cccnc1",
    "Unit String": "%",
    "Numeric Result": 5.398
  },
  {
    "Compound": "CC(C)(N)c1cn(C2CCN(c3ncccc3Cl)CC2)nn1",
    "Unit String": "%",
    "Numeric Result": -9.362
  }
]

Task: Looking for the measured Percent Effect of CCc1ncncc1C(=O)N1CCOC(c2nc(C)n[nH]2)C1 (centres undefined) , can you help?
Result: 2.402

Task: I have this compound here, CCc1n[nH]c(C2CN(C(=O)c3ccnc(C4CC4)n3)CCO2)n1 (centres undefined) , and I need its recorded Percent Effect.
Result: 101.3

Task: Query: Percent Effect; subject: Cc1n[nH]c(C2CN(C(=O)c3ccnc(C4CC4)n3)CCO2)n1 (centres undefined)
Result: -13.72

Task: Which measured Percent Effect value corresponds to CCCc1n[nH]c(C2CN(C(=O)c3ccnc(C4CC4)n3)CCO2)n1 (centres undefined) ?
Result: 146

Task: Need Percent Effect of O=C(Cc1cccs1)NCCNc1nccc(C(F)(F)F)n1 , thanks.
Result: -1.179

Task: Requested field: Percent Effect. Item: CC(C)c1cc(NCC(O)c2ccncc2)n2nccc2n1 (centres undefined)
Result: -8.35

Task: Value lookup for Percent Effect; key = CNC(=O)c1c(C)cccc1NCc1noc(C2CC2)n1
Result: -16.59

Task: What measured Percent Effect goes with COc1ccc(-c2nc(CN3CCc4c(ncn4C)C3)cs2)cc1 ?
Result: 30.48

---

Test system: Wolbachia pipientis
Test: Anti-Wolbachia Cell-Based Screen
Type: functional
Set-up: scale not given: in the data most compounds retested in dose-response had high values
Settings: 5 µM
Among all 48,000 compounds or so, about 13,000 (27%) showed an effect of 50% or more. Some of the results follow.
Measured Attribute: Percent Effect

The following compounds have reported results that may help.
[
  {
    "Compound": "Cc1cnc(N2CCC3(CC2)CC(N(C)Cc2ccncc2)C3)nc1.O=C(O)C(F)(F)F.O=C(O)C(F)(F)F",
    "Experimental Target": "Wolbachia pipientis",
    "Percent Effect": "-8.3%"
  },
  {
    "Compound": "CN(Cc1ccccn1)C1COC2(CCN(Cc3nccs3)CC2)C1 (centres undefined)",
    "Experimental Target": "Wolbachia pipientis",
    "Percent Effect": "-7.584%"
  },
  {
    "Compound": "CN(Cc1cn2c(n1)CN(Cc1nccs1)CC2)Cc1ccco1.O=C(O)C(F)(F)F.O=C(O)C(F)(F)F",
    "Experimental Target": "Wolbachia pipientis",
    "Percent Effect": "-16.64%"
  },
  {
    "Compound": "Cc1ccc(C(=O)N(Cc2cccc(F)c2)C2CC2)c(=O)[nH]1",
    "Experimental Target": "Wolbachia pipientis",
    "Percent Effect": "-0.8552%"
  },
  {
    "Compound": "CN(Cc1cccnc1)C1CC2(CCN(c3ncc(F)cn3)CC2)C1.O=C(O)C(F)(F)F.O=C(O)C(F)(F)F",
    "Experimental Target": "Wolbachia pipientis",
    "Percent Effect": "-6.301%"
  },
  {
    "Compound": "Cc1cc(N(C)C)nc(N2CCn3c(nnc3C(C)C)C2)n1",
    "Experimental Target": "Wolbachia pipientis",
    "Percent Effect": "-5.2%"
  },
  {
    "Compound": "CN(Cc1cccnc1)C1CC2(CCN(c3ncccn3)CC2)C1.O=C(O)C(F)(F)F.O=C(O)C(F)(F)F",
    "Experimental Target": "Wolbachia pipientis",
    "Percent Effect": "96.99%"
  },
  {
    "Compound": "CC(=O)N[C@@H]1Cc2ccccc2[C@H]1Nc1ccncn1",
    "Experimental Target": "Wolbachia pipientis",
    "Percent Effect": "4.323%"
  }
]

// next entry
Task: Could you share which Percent Effect value was measured for CN(Cc1cccnc1)C1COC2(CCN(Cc3nccs3)CC2)C1.O=C(O)C(F)(F)F.O=C(O)C(F)(F)F.O=C(O)C(F)(F)F (centres undefined) ?
Result: 111.1%

---

Listing of recorded Percent Effect by entry.
Test system: Wolbachia pipientis
Assay: Anti-Wolbachia Cell-Based Screen
Format: functional
Design: scale not given: in the data most compounds retested in dose-response had high values
Conditions: 5 µM
The whole screen tested about 48,000 compounds, of which about 13,000 (27%) showed an effect of 50% or more. The list shows a part of the results.
// units = %; emit number, no label

Solved cases (2 shown):
[
  {
    "Compound": "Cc1cccc(CN2CCC(c3csc4nccn34)CC2)n1.O=CO",
    "Experimental Target": "Wolbachia pipientis",
    "Measured Attribute": "Percent Effect",
    "Numeric Result": 151.3
  },
  {
    "Compound": "Cc1cc2cc(CNC3CCN(CC4CCOC4)CC3)oc2cc1C (stereo not drawn)",
    "Experimental Target": "Wolbachia pipientis",
    "Measured Attribute": "Percent Effect",
    "Numeric Result": -8.178
  }
]

Task: # returns recorded Percent Effect (system: Wolbachia pipientis) for Cc1nc(C)c(-c2nnc(SCC(=O)O)n2C(C)c2ccccc2)o1 (stereo not drawn)
Result: 4.033

Task: Which measured Percent Effect belongs to COc1ccc(C(=O)N2CCN3C(=O)CNC(=O)[C@@H]3C2)cc1 , tested on Wolbachia pipientis?
Result: -1.212

Task: Record c1cncc(CN2CCC(c3n[nH]c(C4CC4)n3)CC2)c1 : what is its Percent Effect with Wolbachia pipientis?
Result: 10.48

Task: For the record COc1ccc(C(=O)Nc2nncs2)cn1 , what value of Percent Effect is listed for Wolbachia pipientis?
Result: -3.004

Task: GET /values?readout=Percent Effect&system=Wolbachia pipientis&item= CCN1CCN(C(=O)C2CCOC2)c2ccccc21 (stereo not drawn)
Result: 120.4

Task: Any idea what Percent Effect came out for c1cc(CN2CCCC(c3ccnc4nccn34)C2)ccn1 (stereo not drawn) on Wolbachia pipientis?
Result: 150

Task: Requested read-out Percent Effect, target or system Wolbachia pipientis, entry O=C(C1CCOC1)N1CCN(CC2CC2)c2ccccc21 (stereo not drawn)
Result: 109.4

Task: Please tell me: Percent Effect of CCN(CC1CCOC1)S(=O)(=O)Cc1cc(Cl)ccc1OC (stereo not drawn) , system Wolbachia pipientis?
Result: -20.98

---

Property: Percent Effect; scope: individual compounds
Test system: Wolbachia pipientis
Test: Anti-Wolbachia Cell-Based Screen
Format: functional
Set-up: scale not given: in the data most compounds retested in dose-response had high values
Conditions: 5 µM
The campaign covered roughly 48,000 compounds. About 13,000 (27%) showed an effect of 50% or more. This is one part of the list.
Give the quantity in %, number only.

Example cases with answers are listed next.
[
  {
    "Compound": "CS(=O)(=O)NCCC(=O)NC1(c2ccc(F)cc2)CCCC1",
    "Experimental Target": "Wolbachia pipientis",
    "Percent Effect (%)": -19.35
  },
  {
    "Compound": "CN(C)c1cc2c(nn1)CCN(C(=O)c1cc3c(s1)CCOC3)C2",
    "Experimental Target": "Wolbachia pipientis",
    "Percent Effect (%)": -8.36
  },
  {
    "Compound": "CCN(C(=O)CN(C)C(c1cccc(F)c1)c1ccccn1)C1CC1 (stereo not drawn)",
    "Experimental Target": "Wolbachia pipientis",
    "Percent Effect (%)": 13.51
  },
  {
    "Compound": "CCSCCNC(=O)C(c1cccc(F)c1)N(C)C (stereo not drawn)",
    "Experimental Target": "Wolbachia pipientis",
    "Percent Effect (%)": -18.47
  }
]

Task: Param item = CCN(CC)CC(=O)N(C)C(c1cccc(F)c1)c1ccccn1 (stereo not drawn) ; retrieve measured Percent Effect.
Result: 97.45

Task: Tell me the measured Percent Effect of CCc1ncc2c(n1)CN(CCCOc1ccc(C#N)cc1)CC2 , please.
Result: -6.685

Task: So what's the measured Percent Effect for this one? Cc1ccc2cccc(C(=O)NCC3CCN(C(C)C)C3)c2n1 (stereo not drawn)
Result: -2.471

Task: Any idea what its Percent Effect is? The compound is CN1CCC(CN(C)S(=O)(=O)CC2CCCCC2)CC1
Result: -3.898

Cited source for all entries: ChEMBL document CHEMBL3988442
